Tested on: SEM cells
EXPERIMENT_NOTES: cell viability relative to DMSO control; higher = less cytotoxic
DETAILS: RPMI 5 mM glucose + 10% FBS; 48 h; 46.1 µM
compounds and their reported cell viability
Please format your answer as a value with the unit trailing.

{"columns": ["COMPOUND", "cell viability"],
 "data": [
  ["COC[C@H](NC(=O)c1cnc(C)s1)C(=O)N[C@@H](COC)C(=O)N[C@@H](Cc1ccccc1)C(=O)[C@@]1(C)CO1", "2.78%"],
  ["CCCCCCCCCCCC(CC1OC(=O)C1CCCCCC)OC(=O)C(CC(C)C)NC=O (centres undefined)", "6.99%"],
  ["COc1ccc(CCN2CCN(CCCc3ccccc3)CC2)cc1OC", "109%"]
]}

Fill in the blank: the reported cell viability of `Cc1ccc(-n2nc(C(C)(C)C)cc2NC(=O)Nc2ccc(OCCN3CCOCC3)c3ccccc23)cc1` is ____. 74.8%

Then what about the compound `COc1cc2ncnc(-n3nc(-c4ccccn4)nc3N)c2cc1OC` ? 1.33%

Then what about the compound `C[C@]\1(CCS\C(=N1)N)C2=CC(=C(F)C=C2F)C3=CN=CN=C3` ? 2.28%

Then what about the compound `Clc1cccc(-c2nnnn2Cc2cccnc2)c1Cl` ? 35.9%

Then what about the compound `COc1ccc(Cc2nccc3cc(OC)c(OC)cc23)cc1OC` ? 53.9%

Then what about the compound `CC(C)C[C@H](CN)CC(=O)O` ? 92.1%

Then what about the compound `O=[N+]([O-])c1cn2c(n1)OC[C@@H](OCc1ccc(OC(F)(F)F)cc1)C2` ? 132%

Then what about the compound `CNC(=O)[C@H](Cc1ccccc1)NC(=O)[C@H](CC(C)C)[C@H](CSc1cccs1)C(=O)NO` ? 25.4%

Then what about the compound CCOC(=O)C/1=C(C)/NC(=S)NC1C2=CC=CC(=C2)O (centres undefined) ? 3.89%

Then what about the compound CCCCN(CCCC)CCC(O)c1cc2c(Cl)cc(Cl)cc2c2cc(C(F)(F)F)ccc12 (centres undefined) ? 89%

Then what about the compound `O=C1Nc2ccccc2/C1=C1\Nc2ccccc2C1=O` ? 77.7%

Then what about the compound `CN(C)CCOC(c1ccccc1)c1ccccc1` ? 97.5%

Then what about the compound `Cc1ccc(NC(=O)c2ccc(CN3CCN(C)CC3)cc2)cc1Nc1nccc(-c2cccnc2)n1` ? 99.4%

Then what about the compound `CCC[C@@H]1C[C@@H](C(=O)N[C@@H]([C@H]2O[C@H](SC)[C@H](O)[C@@H](O)[C@H]2O)[C@@H](C)O)N(C)C1.Cl` ? 97.4%

Then what about the compound Cc1ccc(C(C)(O)c2nc3ccccc3s2)c(C)c1 (centres undefined) ? 63.2%

Then what about the compound `C[C@H]([C@H](O)CCC(C)(C)O)[C@H]1CC[C@@]2(O)C/3=C/C(=O)[C@@H]4C[C@@H](O)[C@@H](O)C[C@]4(C)[C@H]3CC[C@]12C` ? 98%
